# Assay Procedure: solubility in sodium phosphate buffer
# Format: physicochemical
# Experimental Conditions: pH 7.4, aqueous buffer, kinetic from dmso stock
Recorded Endpoint: solubility

INSERT INTO assay_data (compound, endpoint_result) VALUES
  ('CC12CC3CC(C1)CC(NC(=O)Nc1ccccc1F)(C3)C2', '50 to 60 µM'),
  ('CC(NC(=O)Nc1ccccc1F)C12CC3CC(CC(C3)C1)C2 (centres unmarked)', '50 to 60 µM'),
  ('O=C(Nc1ccccc1F)NC12CC3CC(CC(C3)C1)C2', '70 to 80 µM'),
  ('O=C(NCC12CC3CC(CC(C3)C1)C2)Nc1ccccc1F', '60 to 70 µM'),
  ('CCC(CC12CC3CC(CC(C3)C1)C2)NC(=O)Nc1ccccc1F (centres unmarked)', '50 to 60 µM'),
  ('O=C(Nc1ccccc1F)NC1C2CC3CC(C2)CC1C3 (centres unmarked)', '80 to 90 µM'),
  ('O=C(Nc1ccc(C23CC4CC(CC(C4)C2)C3)cc1)Nc1ccccc1F', '80 to 90 µM'),
  ('CC12CC3(C)CC(C)(C1)CC(NC(=O)Nc1ccccc1F)(C2)C3', '70 to 80 µM');

* * *

# Assay Procedure: experimental LogP by HPLC-MS
# Type: physicochemical
chromatographic logP reference
Recorded Endpoint: chromatographic logP

INSERT INTO measurements (compound, endpoint_result) VALUES
  ('CCCC(CNC(=O)Nc1ccccc1F)C1C2CC3CC(C2)CC1C3 (stereo not shown)', 6.55),
  ('CCC(CC12CC3CC(CC(C3)C1)C2)NC(=O)Nc1ccccc1F (stereo not shown)', 5.8),
  ('CC(NC(=O)Nc1ccccc1F)C12CC3CC(CC(C3)C1)C2 (stereo not shown)', 4.75),
  ('O=C(NCC12CC3CC(CC(C3)C1)C2)Nc1ccccc1F', 4.4);
